# System: Bacillus subtilis
# test-method-notes: cleaved RNA product abundance (RNA/gDNA barcode ratio) relative to median wild-type variant (ratio to wild type); higher = more accumulation of the downstream cleavage product
# protocol-conditions: experiment (reporter, strain, medium): exp 8a: truncated aprE reporter, strain BJT201 with 2% xylose (RNase J1 expressed); cleavage site: glnRA (positions -5 to +31 mutated)
Rule: 1.0 for cleaved RNA product abundance not less than 0.5, 0.0 for anything less.

Could you tell me if the measured cleaved RNA product abundance of `CGACATGTCCCGCTTCTTTCATTAATCCGTTAGCAACTATTTTGCTATATACATTTACTTTTTAAGAGGAGGAAT` reaches 0.5 or more?
1.0

Could you tell me if the measured cleaved RNA product abundance of `CGACATGTCCCGCTTCTTTCATTAATCCGTTAGCAACTGTTTTGCTAAATTCATTTACCTTTTAAGAGGAGGAAT` reaches 0.5 or more?
0.0

Could you tell me if the measured cleaved RNA product abundance of `CGACATGTCCCGCTTCTTTCATTAATCCGTTAGCAACTAGTTTGCTATATACATTTACCTTTTAAGAGGAGGAAT` reaches 0.5 or more?
1.0

Could you tell me if the measured cleaved RNA product abundance of `CGACATGTCCCGCTTCTTTCATTATTCCGTTAGCAACTGTTTTGCTATATACCTTTACCTTTTAAGAGGAGGAAT` reaches 0.5 or more?
0.0

Could you tell me if the measured cleaved RNA product abundance of `CGACATGTCCCGCTTCTTTCATTAATTCGTTAGCAACTGTTTTGCTATATACATTTAGCTTTTAAGAGGAGGAAT` reaches 0.5 or more?
1.0

Could you tell me if the measured cleaved RNA product abundance of `CGACATGTCCCGCTTCTTTCATTAATCCGTTAGCAACTGTTTTGCTACATACATTTACCTTTTAAGAGGAGGAAT` reaches 0.5 or more?
0.0

Could you tell me if the measured cleaved RNA product abundance of `CGACATGTCCCGCTTCTTTCATTAATCCGTTAGCAATTGTTTTGCTATATACATTTACGTTTTAAGAGGAGGAAT` reaches 0.5 or more?
1.0

Could you tell me if the measured cleaved RNA product abundance of `CGACATGTCCCGCTTCTTTCATTAATCCATTAGCAACTGTTTTGCTATATACATATACCTTTTAAGAGGAGGAAT` reaches 0.5 or more?
1.0

Could you tell me if the measured cleaved RNA product abundance of `CGACATGTCCCGCTTCTTTCATTAATCCGTTAGCAACTTTTTTGCTATATACATTTACCTTTTAAGAGGAGGAAT` reaches 0.5 or more?
1.0

Could you tell me if the measured cleaved RNA product abundance of `CGACATGTCCCGCTTCTTTCATTAATCGGTTAGCAACTGTTTTGATATATACATTTACCTTTTAAGAGGAGGAAT` reaches 0.5 or more?
0.0

Could you tell me if the measured cleaved RNA product abundance of `CGACATGTCCCGCTTCTTTCATTAATCCGTTAGCAACTGTTTTGCTATATACATTGACCATTTAAGAGGAGGAAT` reaches 0.5 or more?
1.0

Could you tell me if the measured cleaved RNA product abundance of `CGACATGTCCCGCTTCTTTCATTATTCCGTTAGCTACTGTTTTGCTATATACATTTACCTTTTAAGAGGAGGAAT` reaches 0.5 or more?
1.0

Could you tell me if the measured cleaved RNA product abundance of `CGACATGTCCCGCTTCTTTCATTAATCCGTTTGCAACTGTTTTGCTACATACATTTACCTTTTAAGAGGAGGAAT` reaches 0.5 or more?
1.0

Could you tell me if the measured cleaved RNA product abundance of `CGACATGTCCCGCTTCTTTCATTAATCCGTTAGCAACTGTTATGGTATATACATTTACCTTTTAAGAGGAGGAAT` reaches 0.5 or more?
0.0

Could you tell me if the measured cleaved RNA product abundance of `CGACATGTCCCGCTTCTTTCATTACTCCGTTAGCAACTGTTTTACTATATACATTTACCTTTTAAGAGGAGGAAT` reaches 0.5 or more?
1.0

Could you tell me if the measured cleaved RNA product abundance of `CGACATGTCCCGCTTCTTTCATTAATCCGTTAGCAAATGTTTTGCTATATACATTTACCATTTAAGAGGAGGAAT` reaches 0.5 or more?
1.0

Could you tell me if the measured cleaved RNA product abundance of `CGACATGTCCCGCTTCTTTCATTATTCCGTTAGCAACTGTTTTGCTATAAACAGTTACCTTTTAAGAGGAGGAAT` reaches 0.5 or more?
0.0

Could you tell me if the measured cleaved RNA product abundance of `CGACATGTCCCGCTTCTTTCATTAATCCGTTAGCAACTGTTACGCTATATACATTTACCTTTTAAGAGGAGGAAT` reaches 0.5 or more?
1.0

Could you tell me if the measured cleaved RNA product abundance of `CGACATGTCCCGCTTCTTTCATTAATCCGTTAGCAACTGTTTTGGTATATACATTTACATTTTAAGAGGAGGAAT` reaches 0.5 or more?
1.0

Could you tell me if the measured cleaved RNA product abundance of `CGACATGTCCCGCTTCTTTCATTAATCCATTAGCAACTGTTATGCTATATACATTTACCTTTTAAGAGGAGGAAT` reaches 0.5 or more?
1.0

Could you tell me if the measured cleaved RNA product abundance of `CGACATGTCCCGCTTCTTTCATTAATCCGTTAGCAACTGTTTTTCTCTATACATTTACCTTTTAAGAGGAGGAAT` reaches 0.5 or more?
0.0

Could you tell me if the measured cleaved RNA product abundance of `CGACATGTCCCGCTTCTTTCATTAATCTGTTAGCAACTGTTTTACTATATACATTTACCTTTTAAGAGGAGGAAT` reaches 0.5 or more?
1.0

Could you tell me if the measured cleaved RNA product abundance of `CGACATGTCCCGCTTCTTTCATTAATGCGTTAGCAACTATTTTGCTATATACATTTACCTTTTAAGAGGAGGAAT` reaches 0.5 or more?
1.0

Could you tell me if the measured cleaved RNA product abundance of `CGACATGTCCCGCTTCTTTCATTAATCCGTTAGAAAGTGTTTTGCTATATACATTTACCTTTTAAGAGGAGGAAT` reaches 0.5 or more?
0.0

Could you tell me if the measured cleaved RNA product abundance of `CGACATGTCCCGCTTCTTTCATTAATCCGTTAAAAACTGTTTTGCTATATACATTTACCTTTTAAGAGGAGGAAT` reaches 0.5 or more?
0.0

Could you tell me if the measured cleaved RNA product abundance of `CGACATGTCCCGCTTCTTTCATTAATCCGTTAACAACTGTTTTGCTATATACATTTACCCTTTAAGAGGAGGAAT` reaches 0.5 or more?
0.0

Could you tell me if the measured cleaved RNA product abundance of `CGACATGTCCCGCTTCTTTCATTAATCCGTTAGCAACTGTTATGCTATATACCTTTACCTTTTAAGAGGAGGAAT` reaches 0.5 or more?
0.0

Could you tell me if the measured cleaved RNA product abundance of `CGACATGTCCCGCTTCTTTCATTATTCCGTTAGCAACTTTTTTGCTATATACATTTACCGTTTAAGAGGAGGAAT` reaches 0.5 or more?
1.0

Could you tell me if the measured cleaved RNA product abundance of `CGACATGTCCCGCTTCTTTCATTAATCCGTTTGCAATTGTTTTGCTATATACATTTACCTTTTAAGAGGAGGAAT` reaches 0.5 or more?
1.0
